Origin of measurements: ChEMBL document CHEMBL2010780

Exercise: state measured Ratio IC50 for each of the compounds provided.
test system: Hepatitis C virus; assay: Ratio of IC50 for Hepatitis C virus genotype 1b Con1 NS5B Cdelta21 polymerase palm site 2 C316Y mutant to IC50 for Hepatitis C virus genotype 1b Con1 NS5B Cdelta21 polymerase; parameters: species or system Hepacivirus hominis
Numbers only.

For each entry beneath this line, provide reported Ratio IC50.
1. CC(C)(C)CC[C@@]1(C)CC(C2=NS(=O)(=O)c3cc(NS(C)(=O)=O)ccc3N2)=C(O)c2ccccc21
2. CNC(=O)c1c(-c2ccc(F)cc2)oc2cc(N(CCO)S(C)(=O)=O)c(C3CC3)cc12

3
50

###

assay: Cytotoxicity against human HuH7 cells after 3 days by MTS assay; type: cell-based, Huh-7
Classify: true when CC50 at 72 h is strictly less than 20 µM; false when CC50 at 72 h is not.

Consider the worked cases shown below.
- CHEMICAL_SMILES: "Cc1ccnc(N2CCN(c3cc(C(C)C)ccc3NC(=O)c3cccnc3)CC2)n1"
  CATEGORY: "true"
- CHEMICAL_SMILES: "CC(C)c1ccc(NC(=O)c2cccnc2-c2ccccc2)c(N2CCN(c3cnccn3)CC2)c1"
  CATEGORY: "true"
- CHEMICAL_SMILES: "CC(C)c1ccc(NC(=O)c2cccnc2C2CC2)c(N2CCN(c3cnccn3)CC2)c1"
  CATEGORY: "false"
- CHEMICAL_SMILES: "Cc1cncc(C(=O)Nc2ccc(C(C)C)cc2N2CCN(c3cnccn3)CC2)c1"
  CATEGORY: "true"
- CHEMICAL_SMILES: "CC(C)c1ccc(NC(=O)c2cccnc2)c(N2CCN(c3ccccn3)CC2)c1"
  CATEGORY: "false"
- CHEMICAL_SMILES: "Cc1ncccc1C(=O)Nc1ccc(C(C)C)cc1N1CCN(c2cnccn2)CC1"
  CATEGORY: "false"
- CHEMICAL_SMILES: "Cc1ncsc1C(=O)Nc1ccc(C(C)C)cc1N1CCN(c2cnccn2)CC1"
  CATEGORY: "false"

Decide: CC50 at 72 h of `Cc1ccc(C(=O)Nc2ccc(C(C)C)cc2N2CCN(c3cnccn3)CC2)cn1` strictly below 20 µM?
true

###

Exercise: state measured pIC50 for each of the compounds provided.
assay: Inhibition of Hepatitis C virus genotype 1b Con1 NS5B Cdelta21 polymerase assessed as incorporation of [33P]-CTP into heteropolymer RNA template after 2 hrs; design: species or system Hepacivirus hominis; settings: Con1, 2 h
pIC50: −log10 of the molar value.

Solved entries (count: 4):
- COMPOUND: "Cc1cncc(C(=O)Nc2ccc(C(C)C)cc2N2CCN(c3cnccn3)CC2)c1"
  RESULT: 5.64
- COMPOUND: "CC(C)c1ccc(NC(=O)C2CCCNC2)c(N2CCN(c3cnccn3)CC2)c1 (stereo not given)"
  RESULT: "< 3.70"
- COMPOUND: "CCOC(=O)c1ccc(NC(=O)c2cccnc2)c(N2CCN(c3cnccn3)CC2)c1"
  RESULT: "< 5.30"
- COMPOUND: "CC(C)c1ccc(NC(=O)c2ccc(C(F)(F)F)nc2)c(N2CCN(c3cnccn3)CC2)c1"
  RESULT: "< 4.70"

For the compound `CC(C)c1ccc(NC(=O)c2cccnc2O)c(N2CCN(c3cnccn3)CC2)c1` , give its measured pIC50 value.
< 3.70

###

tested on: Hepacivirus hominis; assay: Ratio of IC50 for Hepatitis C virus subtype 1b BK NS5B Cdelta21 polymerase to IC50 for Hepatitis C virus genotype 1b Con1 NS5B Cdelta21 polymerase
Exercise: state measured Ratio IC50 for each of the compounds provided.
Give bare numbers.

- CHEMICAL_SMILES: "Cc1ncccc1C(=O)Nc1ccc(C(C)C)cc1N1CCN(c2ncnc3ccsc23)CC1"
  TARGET_SYSTEM: "Hepacivirus hominis"
  NUMERIC_RESULT: 14

For each entry beneath this line, provide reported Ratio IC50.
1. Cc1ncccc1C(=O)Nc1ccc(C(C)C)cc1N1CCN(c2ncnc3[nH]ccc23)CC1
2. CNC(=O)c1c(-c2ccc(F)cc2)oc2cc(N(CCO)S(C)(=O)=O)c(C3CC3)cc12
3. CC(C)(C)CC[C@@]1(C)CC(C2=NS(=O)(=O)c3cc(NS(C)(=O)=O)ccc3N2)=C(O)c2ccccc21

1. 27
2. 6
3. 1

###

system: Hepacivirus hominis; test: Ratio of IC50 for Hepatitis C virus subtype 1a H77 NS5B Cdelta21 polymerase to IC50 for Hepatitis C virus genotype 1b Con1 NS5B Cdelta21 polymerase
READOUT_NAME: Ratio IC50

- CHEMICAL_SMILES: "Cc1ncccc1C(=O)Nc1ccc(C(C)C)cc1N1CCN(c2ncnc3ccsc23)CC1"
  RESULT: 140
- CHEMICAL_SMILES: "CNC(=O)c1c(-c2ccc(F)cc2)oc2cc(N(CCO)S(C)(=O)=O)c(C3CC3)cc12"
  RESULT: 1
- CHEMICAL_SMILES: "CC(C)(C)CC[C@@]1(C)CC(C2=NS(=O)(=O)c3cc(NS(C)(=O)=O)ccc3N2)=C(O)c2ccccc21"
  RESULT: 1

Attention now shifts to the item below.
For the molecule `Cc1ncccc1C(=O)Nc1ccc(C(C)C)cc1N1CCN(c2ncnc3[nH]ccc23)CC1` , give its measured Ratio IC50 value.
270

###

test: Inhibition of Hepatitis C virus genotype 1b Con1 NS5B Cdelta21 polymerase assessed as incorporation of [33P]-CTP into heteropolymer RNA template after 2 hrs; parameters: species or system Hepacivirus hominis; conditions: Con1, 2 h
READOUT_NAME: pIC50
One number for each entry, as −log10 of the molar value.

- CHEMICAL_SMILES: "Cc1c(F)cc(C(=O)Nc2ccc(C(C)C)cc2N2CCN(c3cnccn3)CC2)cc1F"
  pIC50: 5.25
- CHEMICAL_SMILES: "CC(C)c1ccc(NC(=O)c2cccnc2)c(N2CCN(c3nsc(Cl)n3)CC2)c1"
  pIC50: 5.30
- CHEMICAL_SMILES: "Cc1nccc(N2CCN(c3cc(C(C)C)ccc3NC(=O)c3cccnc3)CC2)n1"
  pIC50: 6.80
- CHEMICAL_SMILES: "CC(C)c1ccc(NC(=O)c2cccnc2)c(N2CCN(c3cnccn3)CC2)c1"
  pIC50: 5.52

Attention now shifts to the item below.
For the compound `CSCc1nccc(N2CCN(c3cc(C(C)C)ccc3NC(=O)c3cccnc3C)CC2)n1` , give its measured pIC50 value.
7.57

###

experiment: Cytotoxicity against human HuH7 cells after 3 days by MTS assay; format: cell-based, Huh-7
Exercise: state measured log10(CC50 at 72 h) for each of the molecules provided.
Could you please treat all values as log10 of CC50 at 72 h in µM?

- CHEMICAL_SMILES: "CC(C)c1ccc(NC(=O)c2ccsc2)c(N2CCN(c3cnccn3)CC2)c1"
  NUMERIC_RESULT: 1.45
- CHEMICAL_SMILES: "CC(C)c1ccc(NC(=O)c2cccnc2F)c(N2CCN(c3cnccn3)CC2)c1"
  NUMERIC_RESULT: 1.23
- CHEMICAL_SMILES: "CC(C)c1ccc(NC(=O)c2cccnc2)c(N2CCN(c3ncccn3)CC2)c1"
  NUMERIC_RESULT: 1.57
- CHEMICAL_SMILES: "CC(C)c1ccc(NC(=O)c2cccnc2)c(N2CCN(c3cnccn3)CC2)c1"
  NUMERIC_RESULT: 1.73
- CHEMICAL_SMILES: "CC(C)c1ccc(NC(=O)c2cccnc2)c(N2CCN(c3ccncn3)CC2)c1"
  NUMERIC_RESULT: 1.43

For each entry beneath this line, provide reported log10(CC50 at 72 h).
1. Cc1ncccc1C(=O)Nc1ccc(C(C)C)cc1N1CCN(c2ccncn2)CC1
2. CSCc1nccc(N2CCN(c3cc(C(C)C)ccc3NC(=O)c3cccnc3C)CC2)n1
3. Cc1nccc(N2CCN(c3cc(C(C)C)ccc3NC(=O)c3cccnc3)CC2)n1
4. CC(C)c1ccc(NC(=O)c2cccnc2)c(N2CCN(c3cncc(C4CC4)n3)CC2)c1

1.30
1.28
1.40
0.00

###

Exercise: state measured CC50 at 72 h for each of the molecules provided.
assay: Cytotoxicity against human HuH7 cells after 3 days by MTS assay; format: cell-based, Huh-7
Answers are plain numbers, in µM.

- CHEMICAL_SMILES: "CC(C)c1ccc(NC(=O)c2cccnc2C(F)(F)F)c(N2CCN(c3cnccn3)CC2)c1"
  CC50 at 72 h / µM: 4.5
- CHEMICAL_SMILES: "CC(C)c1ccc(NC(=O)c2cccnc2N)c(N2CCN(c3cnccn3)CC2)c1"
  CC50 at 72 h / µM: 30

For each entry beneath this line, provide reported CC50 at 72 h.
1. CC(C)c1ccc(NC(=O)c2cnc3ccccc3c2)c(N2CCN(c3cnccn3)CC2)c1
2. Cc1ncccc1C(=O)Nc1ccc(C(C)C)cc1N1CCN(c2ncnc3ccsc23)CC1
3. Cc1csc(N2CCN(c3cc(C(C)C)ccc3NC(=O)c3cccnc3)CC2)n1
4. Cc1c(F)ccc(F)c1C(=O)Nc1ccc(C(C)C)cc1N1CCN(c2cnccn2)CC1
5. CC(C)c1ccc(NC(=O)c2cccc(O)n2)c(N2CCN(c3cnccn3)CC2)c1
6. Cc1cncc(N2CCN(c3cc(C(C)C)ccc3NC(=O)c3cccnc3)CC2)n1

6
15
27
11
17
23
